Known pEC50 of a selection of compounds
Biological target: Apelin receptor (Homo sapiens, UniProt P35414)
Sequence (P35414 whole entry): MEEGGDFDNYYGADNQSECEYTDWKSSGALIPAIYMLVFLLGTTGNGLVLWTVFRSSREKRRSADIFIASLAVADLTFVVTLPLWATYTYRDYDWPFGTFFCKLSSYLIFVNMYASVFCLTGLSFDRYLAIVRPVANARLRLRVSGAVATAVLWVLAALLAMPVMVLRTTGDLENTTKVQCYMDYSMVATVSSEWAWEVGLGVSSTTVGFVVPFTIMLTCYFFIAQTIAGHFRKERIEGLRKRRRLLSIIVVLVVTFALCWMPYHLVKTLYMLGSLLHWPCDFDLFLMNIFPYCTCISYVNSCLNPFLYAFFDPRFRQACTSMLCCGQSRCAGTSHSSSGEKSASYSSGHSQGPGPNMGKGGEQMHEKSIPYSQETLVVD
Assay: Agonist activity at APJ receptor in HEK293 cells assessed as inhibition of forskolin-induced cAMP level incubated for 5 mins prior to forskolin challenge measured after 30 mins by TR-FRET assay
Residues, ends and D or L forms follow the SMILES beside them. *: point of attachment. Palmitoyl = CCCCCCCCCCCCCCCC(=O)*
Formally, pEC50 is defined as -log10 of the concentration c, with c in mol/L.

| compound | value |
| --- | --- |
| CCCCCCCCCCCCCCCC(=O)N[C@H](C(=O)N[C@H](C(=O)N[C@@H](CC(C)C)C(=O)N1CCC[C@H]1C(=O)N[C@@H](CC(C)C)C(=O)N[C@@H](Cc1c[nH]c2ccccc12)C(=O)N[C@@H](C)C(=O)N[C@H](C(=O)N[C@@H](C)C(=O)N[C@H](C(=O)N[C@@H](Cc1ccc(O)cc1)C(=O)N[C@@H](CCCNC(=N)N)C(N)=O)[C@@H](C)O)[C@@H](C)O)[C@@H](C)O)C(C)C (Palmitoyl-VTLPLWATATYR-NH2) | 7.02 |

API: the following record is the query input.
Query block: Give pEC50 for CCCCCCCCCCCCCCCC(=O)N[C@H](C(=O)N[C@@H](C)C(=O)N[C@@H](CC(C)C)C(=O)N1CCC[C@H]1C(=O)N[C@@H](CC(C)C)C(=O)N[C@@H](Cc1c[nH]c2ccccc12)C(=O)N[C@@H](C)C(=O)N[C@H](C(=O)N[C@@H](Cc1ccc(O)cc1)C(=O)N[C@H](C(=O)N[C@@H](Cc1ccc(O)cc1)C(=O)N[C@@H](CCCNC(=N)N)C(N)=O)[C@@H](C)O)[C@@H](C)O)C(C)C (Palmitoyl-VALPLWATYTYR-NH2)
Result block: 7.38
